We begin with a simple list: items and their reported TGI.
Test system: DMS 114 small cell lung
METHOD_NOTES: NCI tumour cell line growth inhibition, 48 h

>  <MOLECULE>
COc1cc(OC(=O)c2ccccc2)cc2c1C(=O)C=CC2=O

>  <SYSTEM_UNDER_TEST>
DMS 114 small cell lung

>  <TGI>
30.2 µM

$$$$
>  <MOLECULE>
c1ccc2c(c1)cc(C1NCCc3[nH]cnc31)c1ccccc12 (stereo unspecified)

>  <SYSTEM_UNDER_TEST>
DMS 114 small cell lung

>  <TGI>
> 64.3 µM

$$$$
>  <MOLECULE>
O=c1[nH]c2cc(Cl)ccc2nc1/C(=N\O)C(O)c1cccc([N+](=O)[O-])c1 (stereo unspecified)

>  <SYSTEM_UNDER_TEST>
DMS 114 small cell lung

>  <TGI>
> 100 µM

$$$$
>  <MOLECULE>
CCOC(=O)NC(=O)c1cn(CCOC(=O)CCCCCCCCC(=O)OCCn2cc(C(=O)NC(=O)OCC)c(=O)[nH]c2=O)c(=O)[nH]c1=O

>  <SYSTEM_UNDER_TEST>
DMS 114 small cell lung

>  <TGI>
> 100 µM

$$$$
>  <MOLECULE>
CNS(=O)(=O)NN(C)S(=O)(=O)c1ccccc1

>  <SYSTEM_UNDER_TEST>
DMS 114 small cell lung

>  <TGI>
> 100 µM

$$$$
>  <MOLECULE>
NC(=O)N/N=C(\CC1OC(=O)c2ccccc21)c1ccco1 (stereo unspecified)

>  <SYSTEM_UNDER_TEST>
DMS 114 small cell lung

>  <TGI>
> 100 µM

$$$$

---

Test system: NCI-H23 lung
METHOD_NOTES: NCI tumour cell line growth inhibition, 48 h
# binarize TGI: threshold 60 µM inclusive, high side satisfied, low side not satisfied

>  <MOLECULE>
CCCCCCCCCCCCCCCCCCNC(=O)C(N)Cc1ccc(OCc2ccccc2)cn1 (stereo unspecified)

>  <CLASS>
not satisfied

$$$$
>  <MOLECULE>
N#Cc1c(N)nc(-c2ccc(Cl)cc2)c2c1-c1ccccc1S(=O)(=O)CC2

>  <CLASS>
satisfied

$$$$
>  <MOLECULE>
COc1ccc(Br)c(N/N=C2\CCCNC2=O)c1

>  <CLASS>
satisfied

$$$$
>  <MOLECULE>
C[C@]12C=CC(=O)C=C1CC[C@@H]1[C@@H]2CC[C@]2(C)OC(=O)CC[C@@H]12

>  <CLASS>
satisfied

$$$$
>  <MOLECULE>
Cn1cc2ccccc2c1-c1nc(F)nc(F)n1

>  <CLASS>
satisfied

$$$$
>  <MOLECULE>
CCOc1cc(NC(C)=O)ccc1C(=O)NN1C(=O)C(Cl)C1c1ccccc1 (stereo unspecified)

>  <CLASS>
not satisfied

$$$$
>  <MOLECULE>
COC(=O)c1ccc(C)cc1CC1Cc2cc(C)ccc2C1=O (stereo unspecified)

>  <CLASS>
satisfied

$$$$
>  <MOLECULE>
O=c1oc2ccc3ccccc3c2cc1-c1cn2ccccc2n1

>  <CLASS>
satisfied

$$$$
>  <MOLECULE>
COc1ccc2[nH]cc(CCNC(=O)[C@H](Cc3ccccc3)NC(=O)[C@@H](NCC(F)(F)F)C(C)C)c2c1

>  <CLASS>
satisfied

$$$$
>  <MOLECULE>
COC(=O)C1(CCC(C)=O)CCCCCC1=O (stereo unspecified)

>  <CLASS>
satisfied

$$$$
>  <MOLECULE>
Fc1ccc2c(c1)C1=NN(c3ccccc3)C(F)C1CO2 (stereo unspecified)

>  <CLASS>
not satisfied

$$$$
